Target: mouse neurotrypsin (Mus musculus, UniProt O08762)
Sequence (O08762 22-761): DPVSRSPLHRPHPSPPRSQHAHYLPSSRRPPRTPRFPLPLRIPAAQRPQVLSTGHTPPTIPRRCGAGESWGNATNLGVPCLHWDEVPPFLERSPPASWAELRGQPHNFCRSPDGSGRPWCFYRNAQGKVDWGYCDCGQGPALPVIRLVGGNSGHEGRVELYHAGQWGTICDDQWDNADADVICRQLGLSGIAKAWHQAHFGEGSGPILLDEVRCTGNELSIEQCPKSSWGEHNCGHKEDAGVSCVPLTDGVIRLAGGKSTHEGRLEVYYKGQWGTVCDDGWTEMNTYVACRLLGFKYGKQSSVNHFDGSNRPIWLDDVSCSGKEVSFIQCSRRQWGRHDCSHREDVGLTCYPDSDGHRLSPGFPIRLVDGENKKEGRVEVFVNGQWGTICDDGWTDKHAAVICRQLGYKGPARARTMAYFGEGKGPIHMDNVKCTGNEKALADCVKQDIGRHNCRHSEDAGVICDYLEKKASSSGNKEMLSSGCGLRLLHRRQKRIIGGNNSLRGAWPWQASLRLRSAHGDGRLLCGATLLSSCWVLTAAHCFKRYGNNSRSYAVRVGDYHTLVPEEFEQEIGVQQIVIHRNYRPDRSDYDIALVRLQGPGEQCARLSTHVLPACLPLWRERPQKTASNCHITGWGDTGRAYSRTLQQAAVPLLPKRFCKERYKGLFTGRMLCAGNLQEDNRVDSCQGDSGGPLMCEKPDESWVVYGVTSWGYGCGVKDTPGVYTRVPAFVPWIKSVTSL
Assay: Dose dependence of neurotrypsin inhibition (agrin-EGFP cleavage, Western blot)
Details: 0 to 200 μM compound; agrin-EGFP substrate; Western blot quantification; read-out: IC50 value (half-maximum amount of product)
reported-metric: IC50

N=C(N)NS(=O)(=O)c1ccc(N=Cc2cc(Br)cc(Br)c2O)cc1 :: ~60 µM
